target: GlcNAc(b1-2)[GlcNAc(b1-4)]Man(a1-3)[GlcNAc(b1-4)][GlcNAc(b1-2)[GlcNAc(b1-6)]Man(a1-6)]Man(b1-4)GlcNAc(b1-4)GlcNAc; assay: glycan array binding signal (z-score within array); higher = stronger binding; details: glycan notation: IUPAC condensed, linker removed
About 410 targets per protein were measured; listed, in parts, are those with the strongest signals and a random draw of the rest.
Consider the following binders and their measured glycan array binding signal (z-score) readings.
Output: the number by itself.

Please review the following examples before continuing.
Task: Specify reported glycan array binding signal (z-score) for the binder shown: Agalectin (Anopheles gambiae) (protein) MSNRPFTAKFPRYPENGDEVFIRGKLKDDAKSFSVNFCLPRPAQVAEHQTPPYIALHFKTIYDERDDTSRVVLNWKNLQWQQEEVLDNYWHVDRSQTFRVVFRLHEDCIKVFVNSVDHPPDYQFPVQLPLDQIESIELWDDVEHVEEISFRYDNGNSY
Output: -0.389

Task: Specify reported glycan array binding signal (z-score) for the binder shown: PpFlo2 (Pichia pastoris) (protein) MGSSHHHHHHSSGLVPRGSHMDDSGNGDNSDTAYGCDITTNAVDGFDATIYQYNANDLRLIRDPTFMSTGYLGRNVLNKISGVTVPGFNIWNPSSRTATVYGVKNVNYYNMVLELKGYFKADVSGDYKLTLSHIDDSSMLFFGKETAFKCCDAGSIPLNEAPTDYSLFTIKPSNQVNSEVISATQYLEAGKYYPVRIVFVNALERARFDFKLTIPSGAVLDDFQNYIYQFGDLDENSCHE
Output: 0.675

---
Task: Specify reported glycan array binding signal (z-score) for the binder shown: Gal 7 (Homo sapiens) (protein) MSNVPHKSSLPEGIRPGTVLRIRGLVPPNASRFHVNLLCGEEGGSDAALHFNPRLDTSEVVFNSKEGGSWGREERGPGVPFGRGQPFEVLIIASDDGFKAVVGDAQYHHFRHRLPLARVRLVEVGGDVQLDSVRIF
Output: -0.33
